Listed here: items and their measured kon.
Biological target: T1, mouse TfR ectodomain fused to a mouse IgG1 Fc fragment (mouse, UniProt Q62351 89-763)
T1 construct: extracellular domain; not shown: mouse IgG1 Fc fragment
T1 sequence (Q62351 89-763): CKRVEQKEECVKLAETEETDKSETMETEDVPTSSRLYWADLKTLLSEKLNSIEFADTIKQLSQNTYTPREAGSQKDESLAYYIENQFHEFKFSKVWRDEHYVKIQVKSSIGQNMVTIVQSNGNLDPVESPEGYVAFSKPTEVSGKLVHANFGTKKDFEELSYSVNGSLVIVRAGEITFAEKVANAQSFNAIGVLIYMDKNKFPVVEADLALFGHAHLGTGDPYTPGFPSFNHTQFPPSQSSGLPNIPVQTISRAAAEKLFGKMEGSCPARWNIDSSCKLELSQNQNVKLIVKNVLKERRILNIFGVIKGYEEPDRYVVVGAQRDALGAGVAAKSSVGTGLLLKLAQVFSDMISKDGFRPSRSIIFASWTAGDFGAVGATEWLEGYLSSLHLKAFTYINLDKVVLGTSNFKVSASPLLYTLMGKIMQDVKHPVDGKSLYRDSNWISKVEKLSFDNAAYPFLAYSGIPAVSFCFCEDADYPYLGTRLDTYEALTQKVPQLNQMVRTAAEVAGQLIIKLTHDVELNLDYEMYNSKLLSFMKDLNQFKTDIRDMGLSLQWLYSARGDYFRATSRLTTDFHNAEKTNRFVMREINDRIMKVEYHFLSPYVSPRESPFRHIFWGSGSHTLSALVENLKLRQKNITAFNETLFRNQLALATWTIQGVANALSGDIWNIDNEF
Assay: SPR, kinetic
Expressed in M⁻¹ s⁻¹, but write only the number.

| binder | kon / M⁻¹ s⁻¹ |
| --- | --- |
| VHH A4 (C5^V4) (VHH) VHH: EVQLVESGGGVVQPGGSLKLSCVASGTDFSINFIRWYRQAPGKQREFVAGFTATGATNYADSMKGRFTISRDNTKNAVYLQIDSLKPEDTAVYYCYMLDKWGQGTQVTVSS | 652000 |
| VHH A13 (C5^V13) (VHH) VHH: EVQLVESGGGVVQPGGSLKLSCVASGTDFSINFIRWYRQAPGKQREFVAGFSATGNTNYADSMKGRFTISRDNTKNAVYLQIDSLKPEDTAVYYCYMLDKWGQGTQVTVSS | 231000 |
| C5^V16h20 (VHH) VHH: EVQLVESGGGVVQPGGSLRLSCAASGTDFSINFIRWYRQAPGKGLEFVAGFTATGNTNYADSVKGRFTISRDNAKNAVYLQMNSLRPEDTAVYYCYILDKWGQGTQVTVSS | 251000 |

Q) Any idea what its kon is? The binder is B8^V1 (VHH) VHH: EVQLVESGGGVVQPGGSLRLSCAADGEIFSINFMRWYRQAPGKQREWVAGFTRDGSTNYPDSAKGRFTISRDNAKNTVYLQIDSLKPEDTAVYYCYMLDTWGQGTQVTVSS
A) 6510

Q) For the binder VHH A11 (C5^V11) (VHH) VHH: EVQLVESGGGVVQPGGSLKLSCVASGTDFSINYIRWYRQAPGKQREFVAGFTATGNTNYADSMKGRFTISRDNTKNAVYLQIDSLKPEDTAVYYCYMLDKWGQGTQVTVSS , what kon is on record?
A) 355000

Q) Could you share which kon value was measured for VHH A (C5) (VHH, form with the C-terminal myc-His6 tag (x = 1), since the VHHs were detected with anti-6His or anti-cMyc; the same holds for m12 to m126) VHH: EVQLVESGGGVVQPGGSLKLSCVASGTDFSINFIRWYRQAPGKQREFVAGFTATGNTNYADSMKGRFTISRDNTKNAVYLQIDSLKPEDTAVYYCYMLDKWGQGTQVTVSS ?
A) 915000

Q) So what does the record say about kon for VHH B (B8) (VHH) VHH: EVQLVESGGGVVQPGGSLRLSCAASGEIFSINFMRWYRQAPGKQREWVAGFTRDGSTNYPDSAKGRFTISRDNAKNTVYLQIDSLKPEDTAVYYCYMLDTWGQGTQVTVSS ?
A) 1.23e+06

Q) State the recorded kon for this entry: VHH A2 (C5^V2) (VHH) VHH: EVQLVESGGGVVQPGGSLKLSCVASGTAFSINFIRWYRQAPGKQREFVAGFTATGNTNYADSMKGRFTISRDNTKNAVYLQIDSLKPEDTAVYYCYMLDKWGQGTQVTVSS
A) 583000
